experiment: modulators of HCV replicon luciferase signal, primary screen, HCV replication inhibitor project, Huh7 cells, luciferase reporter (AID 1109);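 also: huh7 hepatoma cells harbouring a luciferase neomycin HCV replicon reporter; luciferase luminescence as measure of HCV replicon replication; test concentration not given here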
measurement-parameters: 48 h, higher = more signal
measured-metric: z-score
Give bare numbers.

These recorded examples may help you get a feel for the data.
O=C1C[C@@](C(=O)NC2CC2)(c2ccc([N+](=O)[O-])cc2)[C@@H](c2ccc(CO)cc2I)N1CC12CC3CC(CC(C3)C1)C2    -3.45
C[C@H]1COC(=O)[C@@H]2CCCN2C(=O)[C@@H](C)COC(=O)[C@@H]2CCCN2C1=O    -0.004
C=CC[C@]1(C(=O)O)N=C(c2ccc(OCCCO)cc2)O[C@H]1c1ccccc1    -0.138

Items follow; give z-score for each.
1. CCCC[C@H]1OB(O)C[C@H]2C1=C(COC)C[C@H]1C(=O)N(Cc3ccccc3)C(=O)[C@H]12
2. CCN1C(C)=C(C(=O)OC)[C@@H](c2ccccc2)N2C(=O)[C@@]3(C(=O)OC)O[C@@]12[C@@H]1C(=O)N(C)C(=O)[C@@H]13
3. O=C(NCC(F)(F)F)[C@@H]1c2ccccc2C(=O)N(Cc2ccccc2Cl)[C@H]1c1ccc(CO)cc1
4. CCCNC(=O)[C@@]1(Sc2ccc(C)cc2)CC(=O)N(Cc2ccccc2Cl)[C@@H]1c1ccc(CO)cc1
5. COC(=O)[C@@]1(Cc2ccccc2)[C@H]2c3cc(C(=O)N4CCCC4)n(CCN4CNCC4=O)c3C[C@H]2CN1C(=O)c1ccccc1
6. Cc1ccccc1C(O)C1C=CC2C(=O)N(c3ccccc3)C(=O)C2N1Nc1ccc(C#N)cc1 (stereo not given)
7. C=C(CCCC)C(=O)CC[C@@H](OC(=O)c1cccnc1)c1cccc(OCCO)c1
8. [N-]=[N+]=NCc1ccccc1C[C@]1(C(N)=O)N=C(c2ccc(OCCCO)cc2)O[C@H]1c1ccccc1CN=[N+]=[N-]

[0.202, -0.0304, -1.03, -2.42, -0.857, -0.15, -3.58, -2.34]

Answer for every listed entry: what is its z-score? The entries follow.
1. CSCC[C@@H]1NC(=O)CC=C[C@@H](C)COC(=O)[C@H](CCSC)NC(=O)CC=C[C@@H](C)COC1=O
2. COCCCNC(=O)[C@@H]1c2ccccc2C(=O)N(CC23CC4CC(CC(C4)C2)C3)[C@H]1c1ccc(CO)cc1
3. C[C@H]1C2[C@H](Cc3ccccc3)NC(=O)[C@]23C(=O)N[C@H](Cc2ccccc2)C(=O)N[C@@H](Cc2ccccc2)C(=O)NC/C=C\C/C=C/C3[C@@H]2O[C@]12C (stereo not given in full)
4. C[C@@H]1NC(=O)CC=C[C@@H](C)[C@@H]2C=C[C@H](O)[C@@H](COC(=O)[C@H](C)NC(=O)CC=C[C@@H](C)[C@@H]3C=C[C@H](O)[C@@H](COC1=O)O3)O2

1: -0.116; 2: -1.57; 3: -0.204; 4: 0.128

###

Could you please report measured composite z-score for the items listed next?
study-target: Follistatin-related protein 3 (Homo sapiens)
experiment: FSTL3 binders on small-molecule microarrays, primary screen, biochemical, small-molecule microarray, 635 nm fluorescence (AID 1105);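 also: score merges emission near 667 nm and signal to noise per printed spot across three slides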
measurement-parameters: FSTL3 binding, higher = more signal

CC(=O)Nc1ccc([C@H]2[C@H](C)CC[C@H]3C(=O)N4[C@@H](CC[C@@H](C)[C@@H]4c4ccc(NC(C)=O)cc4)C(=O)N32)cc1    0.845
[N-]=[N+]=NCc1ccccc1C[C@]1(C(N)=O)N=C(c2ccc(OCCCO)cc2)O[C@H]1c1ccccc1CN=[N+]=[N-]    0.186
NC(=O)NCC#Cc1ccc2c(c1)[C@]1(C(=O)N2)[C@H](C(=O)N2CCCCCCC2)[C@H]2C(=O)O[C@H](c3ccccc3)[C@H](c3ccccc3)N2[C@@H]1c1ccccc1OCCO    1.71
Cc1ccc(S[C@]2(C(=O)NC(C)C)CC(=O)N(Cc3cc(C(F)(F)F)cc(C(F)(F)F)c3)[C@@H]2c2ccc(CO)cc2I)cc1    -0.923
CCOC(=O)C[C@H]1[C@H](OC(=O)c2ccccc2-c2ccccc2)[C@@H](NC(=O)C2CCCCC2)c2cc(OCCCO)ccc2N1C(=O)c1ccccc1    0.437

Form: compound = CCOC(=O)C[C@H]1[C@H](OC(=O)Cc2ccc3c(c2)OCO3)[C@@H](NC(=O)CC(C)C)c2cc(OCCCO)ccc2N1C(=O)c1ccccc1 ; composite z-score = 0.321

###

Consider the following molecules; for each one, report its z-score.
experiment: MM1S cell viability effects, profiling panel, calcein-AM fluorescence, 48 h, basal (AID 1165);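 also: viability of MM1S multiple myeloma cells under basal unstimulated conditions; test concentration not given here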
measurement-parameters: higher = more signal
Give bare numbers.

Answered examples (2):
COc1cc(CO)cc(I)c1O[C@H]1C=C(C(=O)NCCO)C[C@@H](N(CC2CCCCC2)C(=O)c2cc3ccccc3oc2=O)[C@@H]1O    1.01
COCCOC(=O)N1C(=O)[C@@]2(c3cc(C#CCNC(N)=O)ccc31)[C@H](C(=O)N1CCCCCCC1)[C@H]1C(=O)O[C@H](c3ccccc3)[C@H](c3ccccc3)N1[C@@H]2c1ccccc1OCCO    1.38

Could you now look at the following molecule, please?
Data point: COc1cccc([C@@H]2[C@@H](C)CC[C@H]3C(=O)N(C)[C@@H](C(C)C)C(=O)N23)c1 ; z-score = 0.344

###

Test system: glycogen synthase kinase-3 (GSK3A per assay name; protocol says GSK3B)
experiment: GSK3 binders on small-molecule microarrays, primary screen, biochemical, small-molecule microarray, 635 nm fluorescence, GSK3A (AID 1103); also: the record names both GSK3A and GSK3B
measurement-parameters: small-molecule microarray binding, fluorescence 635 nm; higher = more signal
Please go through the items and note down their composite z-score.
One number for each entry.

Worked examples follow.
Cc1ccc(S[C@]2(C(=O)NC(C)C)CC(=O)N(C3Cc4ccccc4C3)[C@@H]2c2ccc(CO)cc2)cc1    -0.106
C[C@@H]1CC[C@H]2C(=O)N3CCC[C@H]3C(=O)N2[C@H]1c1ccc(Br)cc1    0.267
C[C@H]1COC(=O)[C@@H]2CCCN2C(=O)[C@@H](C)COC(=O)[C@@H]2CCCN2C1=O    -0.295
Cc1ccccc1C(O)C1C=CC2C(=O)N(c3ccccc3)C(=O)C2N1Nc1ccc(C#N)cc1 (stereo not drawn)    1.3
COc1ccc(NN2C(C(O)c3cc(OC)c(OC)c(OC)c3)C=CC3C(=O)N(C4CCCCC4)C(=O)C32)cc1 (stereo not drawn)    1.04

Working through the 3 compounds below one at a time, give composite z-score for each.
1. [N-]=[N+]=NCc1ccccc1C[C@]1(C(=O)N2CCCCC2)N=C(c2ccc(OCCCO)cc2)O[C@H]1c1ccccc1CN=[N+]=[N-]
2. O=C1OCC=C[C@H]2OC34C=CCN(Cc5ccccc5)C(=O)[C@H]3N(CCO)C(=O)[C@@H]4[C@@H]12 (stereo partly drawn)
3. C=CCc1cccc([C@H]2N[C@H](C(=O)O)CC[C@@H]2C)c1

1. 0.65
2. -1.46
3. 0.706

###

For each entry below, report its composite z-score value.
study-target: Fibroblast growth factor 10 (Homo sapiens) (UniProt O15520)
Sequence (O15520 whole entry, looked up): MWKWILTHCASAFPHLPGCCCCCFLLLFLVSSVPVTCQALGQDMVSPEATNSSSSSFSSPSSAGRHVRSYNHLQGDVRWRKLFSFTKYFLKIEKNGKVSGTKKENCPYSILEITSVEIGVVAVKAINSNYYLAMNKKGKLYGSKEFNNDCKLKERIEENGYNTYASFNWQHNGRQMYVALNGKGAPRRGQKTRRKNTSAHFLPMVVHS
experiment: FGF10 binders on small-molecule microarrays, primary screen, biochemical, small-molecule microarray, 635 nm fluorescence (AID 1102)
measurement-parameters: FGF10 binding, fluorescence 635 nm, higher = more signal

CC(C)NC(=O)[C@@]1(Cc2ccccc2I)c2ccccc2C(=O)N(C2CCCCC2)[C@H]1c1ccc(CO)cc1    1.1

Below is a list of compounds. For each, state its recorded composite z-score.
1. CCCNC(=O)[C@@H]1c2ccccc2C(=O)N(C2CCCCC2)[C@H]1c1ccc(CO)cc1
2. COc1cc2c(cc1OC)CN(C(=O)[C@@H]1[C@H]3C(=O)O[C@H](c4ccccc4)[C@H](c4ccccc4)N3[C@H](c3ccccc3OCCO)[C@@]13C(=O)Nc1ccccc13)CC2
3. O=C(NCc1ccccc1)c1ccc(Br)cc1[N+](=O)[O-]
4. [N-]=[N+]=NCc1ccccc1C[C@]1(C(=O)N2CCCCC2)N=C(c2ccc(OCCCO)cc2)O[C@H]1c1ccccc1CN=[N+]=[N-]
5. CO[C@@H]1COC(=O)[C@H](C)NC(=O)CC=C[C@@H](C)[C@H](NS(=O)(=O)c2ccc(C)cc2)COC(=O)CC=C[C@@H]1C

[0.965, 0.748, 0.39, 0.924, 0.0743]

###

Please provide measured composite z-score for the entries that follow.
experiment: small-molecule binders of probe aNOTCH3, primary screen, biochemical, small-molecule microarray, 635/667 nm fluorescence (AID 1120);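 also: probe is a biotin-tagged antibody raised against NOTCH3 rather than NOTCH3 protein; score merges spot fluorescence near 667 nm with spot signal to noise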
measurement-parameters: higher = more signal

Check out these entries, answers already filled in.
CCCNC(=O)[C@@H]1c2ccccc2C(=O)N(C2CCCCC2)[C@H]1c1ccc(CO)cc1    0.103
COc1cc2c(cc1OC)CN(C(=O)[C@H]1[C@@H]3C(=O)O[C@@H](c4ccccc4)[C@@H](c4ccccc4)N3[C@@H](c3ccc(O)cc3)[C@]13C(=O)Nc1ccc(C#CC4(O)CCCCCC4)cc13)CC2    0.974

Batch request: composite z-score per item, same order as input.
1. CC(C)C[C@@H]1NC(=O)[C@H](CC(C)C)NC(=O)[C@@]23C(=O)N[C@@H](Cc4ccccc4)C2[C@H](C)[C@@]2(C)O[C@H]2C3/C=C/CC/C=C/CNC1=O (stereo not given in full)
2. CO[C@@H]1COC(=O)[C@@H]2CCCN2C(=O)CC=C[C@@H](C)[C@H](OC)COC(=O)[C@@H]2CCCN2C(=O)CC=C[C@H]1C

[-0.0657, -0.0699]

Fill in composite z-score for each of the 7 molecules listed.
1. COCCOC(=O)N1C(=O)[C@@]2(c3cc(C#CCC(C(=O)OC)C(=O)OC)ccc31)[C@H](C(=O)N1CCN(c3ncccn3)CC1)[C@H]1C(=O)O[C@H](c3ccccc3)[C@H](c3ccccc3)N1[C@@H]2c1ccc(O)cc1
2. CC(C)C[C@@H]1NC(=O)[C@H]2C[C@@H](C(=O)NCCCCCC[N+](C)(C)C)[C@@H](c3ccc(O)cc3)N2C1=O
3. CCCCCCc1nc(-c2cc(C)c(OC)c(C)c2)cc2c1[Si](C(C)C)(C(C)C)O[C@H]2c1ccccc1
4. C[C@@H]1C=CCC(=O)OC[C@H]2O[C@@H](C=C[C@@H]2O)[C@H](C)C=CCC(=O)OC[C@H]2O[C@H]1C=C[C@@H]2O
5. CC(=O)NCCCC[C@@H]1NC(=O)[C@@H]2C[C@H](C(=O)NCc3ccc(F)cc3)[C@H](c3cccc(OCCO)c3)N2C1=O
6. C=CC[C@]1(C(=O)OC)N=C(c2ccc(OCCCO)cc2)O[C@H]1c1ccccc1CN=[N+]=[N-]
7. C=CCN1C(=O)[C@@]2(Cc3ccccc3)N=C(c3ccc(OCCCO)cc3)O[C@H]2c2ccccc21

1: -0.0343; 2: -0.126; 3: -0.194; 4: 0.716; 5: -0.226; 6: -0.0598; 7: 0.0635

Please give composite z-score, item by item, for the list that follows.
1. CO[C@H]1COC(=O)[C@@H](OCc2ccccc2)C=C[C@H](C)[C@@H](OC)COC(=O)[C@H](OCc2ccccc2)C=C[C@@H]1C
2. CCOC(=O)C[C@H]1[C@H](OC(=O)c2cc3ccccc3oc2=O)[C@@H](NC(=O)C2CCCCC2)c2cc(OCCCO)ccc2N1C(=O)c1ccc2ccccc2n1
3. CC(C)NC(=O)[C@@]1(Cc2ccccc2I)c2ccccc2C(=O)N(C2CCCCC2)[C@H]1c1ccc(CO)cc1
4. C=CCNC(=O)[C@@H]1[C@H]2C(=O)O[C@H](c3ccccc3)[C@H](c3ccccc3)N2[C@H](c2ccc(OCCO)cc2)[C@@]12C(=O)N(C(=O)OCCOC)c1ccc(C#CC3(O)CCCCCC3)cc12

1: -0.0682; 2: -0.0311; 3: 0.233; 4: 0.353

Reference source for all entries: PubChem BioAssay
